# Tested Target: T1, IL-6R-Fc 항원 (IL-6R full domain 단백질) (human, UniProt P08887 20-365)
# T1 construct: domain: IL-6R full domain; Expressed transiently in HEK293E and purified from the supernatant; also called IL-6R 항원; not shown: Fc part from expression vector pYK 604
# T1 sequence (looked up): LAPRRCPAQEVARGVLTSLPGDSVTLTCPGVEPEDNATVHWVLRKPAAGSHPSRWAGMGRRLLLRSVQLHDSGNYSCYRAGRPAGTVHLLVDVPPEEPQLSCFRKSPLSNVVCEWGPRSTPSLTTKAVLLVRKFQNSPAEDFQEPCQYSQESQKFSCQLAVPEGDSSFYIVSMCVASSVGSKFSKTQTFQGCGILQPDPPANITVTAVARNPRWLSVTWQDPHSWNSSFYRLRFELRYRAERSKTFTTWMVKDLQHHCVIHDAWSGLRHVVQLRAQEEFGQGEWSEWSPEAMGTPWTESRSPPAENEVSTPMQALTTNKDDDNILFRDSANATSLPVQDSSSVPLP
# Assay Name: mono phage ELISA, antigen coated 100 ng/well, anti-M13-HRP
Attribute Measured: OD 490 nm (IL-6R full) (OD490)
Give bare numbers, in OD490.

# count of solved cases: 3
# Binder, OD 490 nm (IL-6R full), OD490
data = [
    ("모노 파아지 클론 B10 (scFv on phage) (scFv) DVHSQVQLVESGGGLVQPGGSLRLSCAASGFIFDDYAMFWVRQVPGKGLEWVAGINWNGNGIGYGDSVRGRFIISRDNARNSLDLQMNSLRAEDTAVYYCARPSLYGGNSEFDLWGQGTLVTVSSDVHSQLVLTQPPSVSGAPGQTVTISCTGPTIGAGYDVHWYQQLPGAAPKLLIYGNLNRPSGVPDRFSGSKSGTSASLAITDLQAEDEADYYCHTYDSSLSGSWVFGGGTKLTVL", 2.1),
    ("모노 파아지 클론 F2 (scFv on phage) (scFv) DVHSQVQLVESGAEVKKPGASVKVSCKASGYTFTNYYMHWVRQAPGQGLEWMGIINPSGGNTGYAQKFQGRVTMTRDMSTSTAYMELSSLRSEDTAVYYCARGLPWGENGLDVWGQGTTVTVSSDVHSQLVLTQPSSVSGAPGQTVTISCTGSSSNIGAGYDVHWYQQLPGTAPKVLIYGDSDRPSGVPDRFSGSKSATSASLAITGLQAEDEADYYCQSYDSSLSAYVFGTGTKVTVL", 2.86),
    ("모노 파아지 클론 A7 (scFv on phage) (scFv) DVHSQMQLVESGGGLVQPGTSLRLSCAASGFKFEDYAMHWVRQAPGKGLEWVSGVSWNSGTIAYVDSVKGRFTISRDNAKNSLYLQMNSLRAEDTAVYYCARDFTYFYESSGYYAFDLWGQGTMVTVSSDVHSQLVLTQPPSVSGAPGQRVTISCTGTNSNIGAGYDVHWYQQVPGTTPKLLIYGNTNRPSGVPDRFSGSKSGTSASLAITGLQAEDGGDYYCQSFDSSLTGSVFGTGTKVTVL", 2.48),
]

Let us examine a further case.
**Q:** Provide OD 490 nm (IL-6R full) value for the following binder: 모노 파아지 클론 D2 (scFv on phage) (scFv) DVHSQVQLVESGAEVKKPGSSVKVSCKGSGDTFPNYAINWVRQAPGQGPEWMGRIIPMLGTSDYAEKFQGRVTITADKSTNTAYMGLNSLRSEDTAVYYCVKGPRYYGTDSYYLEKWGQGTMVTVSSDVHSQLVLTQPPSVSGAPGQTVTISCTGPTIGAGYDVHWYQQLPGAAPKLLIYGNLNRPSGVPDRFSGSKSGTSASLAITDLQAEDEADYYCHTYDSSLSGSWVFGGGTKLTVL
**A:** 2.34
